# Test system: Soybean Cyst Nematode (Heterodera glycines) eggs
# protocol text: Evaluation of Soybean Cyst Nematode egg hatch
# Assay type: cell-based
# condition info: 100 ppm
Entries and their Percent Egg Hatch Reduction
value type: Percent Egg Hatch Reduction (%)

- O=C(NCCc1ncc(C(F)(F)F)cc1Cl)c1ccccc1C(F)(F)F [Fluopyram, reference compound]: 61.9
- O=S(=O)(CCC(F)=C(F)F)c1ncc(Cl)s1 [Fluensulfone]: 0.5
- c1ccc(-c2noc(-c3cccs3)n2)cc1 [Tioxazafen]: −0.9
- CON(C(=O)c1cn(C)nc1C(F)F)C(C)Cc1c(Cl)cc(Cl)cc1Cl (stereo not shown) [Pydiflumetofen]: 64.0

----------
Percent Egg Hatch Reduction for assorted molecules
# Test system: Soybean Cyst Nematode (Heterodera glycines) eggs
# protocol text: Evaluation of Soybean Cyst Nematode egg hatch
# Type: cell-based
# condition info: 10 ppm
value type: Percent Egg Hatch Reduction (%)

* CON(C(=O)c1cn(C)nc1C(F)F)C(C)Cc1c(Cl)cc(Cl)cc1Cl (stereo not shown) | 34.7
* O=S(=O)(CCC(F)=C(F)F)c1ncc(Cl)s1 | −1.5
* O=C(NCCc1ncc(C(F)(F)F)cc1Cl)c1ccccc1C(F)(F)F [Fluopyram, reference compound] | 4.5
* c1ccc(-c2noc(-c3cccs3)n2)cc1 | −0.5
